# System tested: EGFR L858R (Homo sapiens, UniProt P00533, L858R)
# Construct: purchased SignalChem E10-122BG
# Sequence (P00533 25-1210 L858R): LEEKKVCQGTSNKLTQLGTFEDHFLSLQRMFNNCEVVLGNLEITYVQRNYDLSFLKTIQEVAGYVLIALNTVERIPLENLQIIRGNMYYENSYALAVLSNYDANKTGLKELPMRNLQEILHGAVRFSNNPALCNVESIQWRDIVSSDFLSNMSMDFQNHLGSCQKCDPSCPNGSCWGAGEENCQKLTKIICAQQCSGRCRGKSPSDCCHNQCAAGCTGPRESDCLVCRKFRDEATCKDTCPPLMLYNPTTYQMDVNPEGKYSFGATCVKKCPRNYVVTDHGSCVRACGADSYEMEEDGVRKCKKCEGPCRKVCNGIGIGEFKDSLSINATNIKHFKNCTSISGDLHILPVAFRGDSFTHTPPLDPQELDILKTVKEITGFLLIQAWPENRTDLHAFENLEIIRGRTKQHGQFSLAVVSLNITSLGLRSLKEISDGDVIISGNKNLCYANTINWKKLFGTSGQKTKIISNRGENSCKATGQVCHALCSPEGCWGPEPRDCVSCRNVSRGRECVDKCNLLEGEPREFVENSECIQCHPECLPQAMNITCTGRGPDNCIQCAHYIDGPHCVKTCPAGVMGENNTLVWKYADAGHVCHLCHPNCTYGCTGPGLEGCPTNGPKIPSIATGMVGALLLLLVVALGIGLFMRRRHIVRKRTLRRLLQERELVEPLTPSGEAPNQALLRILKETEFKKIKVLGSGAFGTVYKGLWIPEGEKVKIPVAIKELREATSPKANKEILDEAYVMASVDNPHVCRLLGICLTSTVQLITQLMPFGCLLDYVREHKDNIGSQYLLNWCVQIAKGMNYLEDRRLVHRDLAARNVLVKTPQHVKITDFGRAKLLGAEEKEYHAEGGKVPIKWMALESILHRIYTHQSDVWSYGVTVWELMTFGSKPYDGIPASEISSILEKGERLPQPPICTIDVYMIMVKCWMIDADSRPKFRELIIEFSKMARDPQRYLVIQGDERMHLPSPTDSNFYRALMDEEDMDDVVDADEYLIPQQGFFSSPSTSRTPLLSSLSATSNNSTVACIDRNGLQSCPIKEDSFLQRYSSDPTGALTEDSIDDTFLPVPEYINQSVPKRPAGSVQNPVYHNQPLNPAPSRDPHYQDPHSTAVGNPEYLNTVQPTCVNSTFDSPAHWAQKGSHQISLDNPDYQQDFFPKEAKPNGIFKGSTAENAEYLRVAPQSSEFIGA
# Experiment description: Biochemical EGFR inhibition assay (Caliper mobility shift), EGFR L858R
# Stated conditions: biochemical Caliper mobility shift assay, EGFR L858R enzyme; read-out: Enz EGFR L858R IC50
pIC50: −log10 of the molar value.
Measurement type: pIC50

Would you please look over these solved cases?
>  <Compound>
CN1C[C@H](F)C[C@H](Oc2cc(-c3cnn(C)c3)cc3ncnc(Nc4ccc5ncsc5c4)c23)C1 (single isomer, unassigned) [Example 336]

>  <pIC50>
≥ 8.00

$$$$
>  <Compound>
COc1nn(C)cc1-c1cc(O[C@@H]2CCN(C)C[C@H]2F)c2c(Nc3ccc4ncsc4c3F)ncnc2c1 [Example 351]

>  <pIC50>
≥ 8.00

$$$$

Kindly state the measured pIC50 obtained for C[C@H](Oc1cc(-c2cnn(C)c2)cc2ncnc(Nc3ccc4ncsc4c3)c12)C(=O)N1CCOCC1 [Example 284] with EGFR L858R (Homo sapiens, UniProt P00533, L858R). ≥ 8.00

Kindly state the measured pIC50 obtained for C[C@H](Oc1cc(-c2cnn(C)c2)cc2ncnc(Nc3ccc4ncsc4c3F)c12)C1CCOC1 (stereo partly drawn) [Example 90] with EGFR L858R (Homo sapiens, UniProt P00533, L858R). ≥ 8.00

Form field: pIC50 recorded for CCN1CC[C@H](Oc2cc(-c3cnn(C)c3)cc3ncnc(Nc4ccc5ncsc5c4)c23)C1=O (single isomer, unassigned) [Example 59] with EGFR L858R (Homo sapiens, UniProt P00533, L858R) (enter value) ≥ 8.00

For the record C[C@@H](Oc1cc(-c2cnn(C)c2)cc2ncnc(Nc3ccc4ncsc4c3F)c12)C(=O)N(C)C (single isomer, unassigned) [Example 279] , what value of pIC50 is listed for EGFR L858R (Homo sapiens, UniProt P00533, L858R)? ≥ 8.00

###

Each record here notes measured pIC50.
# System tested: intracellular phosphorylation of EGFR (Tyr1068) in PC-9 cells (Homo sapiens, UniProt P00533, DEL746-750)
# Sequence (P00533 with tags, fused parts or gaps DEL746-750): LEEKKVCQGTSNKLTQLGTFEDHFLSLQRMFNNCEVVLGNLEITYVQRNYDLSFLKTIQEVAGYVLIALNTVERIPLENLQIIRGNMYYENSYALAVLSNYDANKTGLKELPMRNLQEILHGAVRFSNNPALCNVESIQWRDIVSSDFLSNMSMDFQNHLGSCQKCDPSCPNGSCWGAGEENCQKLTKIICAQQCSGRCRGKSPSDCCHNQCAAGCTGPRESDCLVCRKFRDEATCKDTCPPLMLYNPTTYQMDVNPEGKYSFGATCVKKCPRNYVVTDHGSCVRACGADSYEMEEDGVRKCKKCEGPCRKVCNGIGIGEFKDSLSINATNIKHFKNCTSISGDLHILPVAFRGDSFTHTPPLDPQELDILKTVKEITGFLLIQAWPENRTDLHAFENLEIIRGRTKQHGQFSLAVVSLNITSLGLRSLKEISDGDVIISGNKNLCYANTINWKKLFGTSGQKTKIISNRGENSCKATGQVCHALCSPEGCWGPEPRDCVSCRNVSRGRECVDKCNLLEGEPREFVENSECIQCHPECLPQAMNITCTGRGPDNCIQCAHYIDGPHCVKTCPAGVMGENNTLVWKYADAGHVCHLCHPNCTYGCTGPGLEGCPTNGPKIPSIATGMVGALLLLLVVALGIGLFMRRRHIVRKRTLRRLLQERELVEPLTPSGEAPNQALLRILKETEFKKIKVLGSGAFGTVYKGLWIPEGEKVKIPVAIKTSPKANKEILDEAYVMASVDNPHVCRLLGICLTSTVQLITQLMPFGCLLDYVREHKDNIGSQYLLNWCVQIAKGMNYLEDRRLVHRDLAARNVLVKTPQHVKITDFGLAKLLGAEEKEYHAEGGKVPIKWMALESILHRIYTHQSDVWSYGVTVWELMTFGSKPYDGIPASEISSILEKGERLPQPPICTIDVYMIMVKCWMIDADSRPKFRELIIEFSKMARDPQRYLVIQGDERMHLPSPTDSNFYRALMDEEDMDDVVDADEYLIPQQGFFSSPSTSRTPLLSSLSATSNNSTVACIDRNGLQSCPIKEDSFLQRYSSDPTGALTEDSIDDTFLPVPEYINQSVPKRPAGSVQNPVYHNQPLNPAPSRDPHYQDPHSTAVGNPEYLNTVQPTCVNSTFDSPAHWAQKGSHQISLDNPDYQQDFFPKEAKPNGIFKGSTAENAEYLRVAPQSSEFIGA
# Experiment description: PC-9 pEGFR AlphaLISA assay
# Stated conditions: 4 hours incubation, read-out: Phos EGFR PC9 IC50
# Method: PC-9/A431 pEGFR AlphaLISA Assays Inhibitory effects of compounds were evaluated in cellular assays that measure level of intracellular phosphorylation of EGFR in PC-9 (ECACC, #90071810, Milipore/Sigma) and A431 cell lines (ATCC, CRL-1555) using AlphaLISA sureFire ultra p-EGFR (Tyr1068) assay kit (PerkinElmer, ALSU-PEGFR-A50K). […] On the next day, the plate was read the Envision using standard AlphaLisa settings. […]
pIC50: −log10 of the molar value.

>  <Compound>
Cn1cc(-c2cc(O[C@@H]3C[C@@H](O)[C@@H](O)C3)c3c(Nc4ccc5ncsc5c4)ncnc3c2)cn1 (single isomer, unassigned) [Example A23]

>  <pIC50>
7.30 to 8.00

$$$$
>  <Compound>
CCN1CCN(C(=O)Nc2cc3c(Nc4ccc5ncsc5c4)ncnc3cc2-c2ccn(C)n2)CC1 [Example 253]

>  <pIC50>
≥ 8.00

$$$$
>  <Compound>
COC[C@@H](C)Oc1cc(N2CCN(C)C[C@H]2C)cc2ncnc(Nc3ccc4ncsc4c3)c12 (single isomer, unassigned) [Example 211]

>  <pIC50>
< 7.30

$$$$
>  <Compound>
Cn1cc(-c2cc(OCC(=O)N3CCC3)c3c(Nc4ccc5ncsc5c4)ncnc3c2)cn1 [Example 271]

>  <pIC50>
7.30 to 8.00

$$$$
>  <Compound>
COC[C@@H](C)Oc1cc(N2CCNCC2)cc2ncnc(Nc3ccc4ncsc4c3)c12 [Example 195]

>  <pIC50>
7.30 to 8.00

$$$$

Which pIC50 is reported for this compound? CN1CC[C@@H](Oc2cc(-c3cnn(C)c3)cc3ncnc(Nc4ccc5ncsc5c4F)c23)C1 [Example 4] 7.30 to 8.00

Requested read-out: pIC50. Entry: COCCOc1cc(O[C@H](C)C2COC2)c2c(Nc3ccc4ncsc4c3F)ncnc2c1 (single isomer, unassigned) [Example 84] ≥ 8.00

So what does the record say about pIC50 for C[C@H](CN(C)C)Oc1cc(N2CC[C@@H](C(C)(C)O)C2)cc2ncnc(Nc3ccc4ncsc4c3)c12 [Example 182] ? ≥ 8.00

For the compound shown here, Cn1cc(-c2cc(OC3CCCOC3)c3c(Nc4ccc5ncsc5c4)ncnc3c2)cn1 (single isomer, unassigned) [Example 6] , give the reported pIC50. ≥ 8.00

Which value of pIC50 has been reported for C[C@H](Oc1cc(-c2cnn(C)c2)cc2ncnc(Nc3ccc4ncsc4c3)c12)C(F)(F)F [Example 68] in the records? ≥ 8.00

Recorded pIC50 for CN(C)[C@H]1CC[C@H]1Oc1cc(-c2cnn(C)c2)cc2ncnc(Nc3ccc4ncsc4c3)c12 (racemic) [Example A50] , please? ≥ 8.00

Tell me the measured pIC50 of CN1CCC(Oc2cc(-c3cnn(C)c3)cc3ncnc(Nc4ccc5scnc5c4)c23)CC1 [Example A03] , please. 7.30 to 8.00

Name the recorded pIC50 for Cn1cc(-c2cc(OCC3CCOC3)c3c(Nc4ccc5ncsc5c4)ncnc3c2)cn1 (single isomer, unassigned) [Example 41] . 7.30 to 8.00

Find the recorded pIC50 belonging to Cn1cc(-c2cc(O[C@@H]3CNC[C@H](F)C3)c3c(Nc4ccc5ncsc5c4)ncnc3c2)cn1 (racemic) [Example 329] and report it. ≥ 8.00
